Taken from patent US20150031686A1.

# Test system: human lung adenocarcinoma cell A549
# assay_info: In vitro human lung adenocarcinoma cell A549 inhibitory activity (MTT)
# Format: cell-based
# test_settings: Homo sapiens, A549, 48 h
For each entry below, report its IC50 value.

// each listed compound needs a value for IC50
1. COc1cc(NCc2c[nH]c3ccccc23)ccc1-c1cnco1 [Compound 53]
2. COc1cc(NCc2cccc(C)n2)ccc1-c1cnco1 [Compound 57]
3. COc1cc(NCc2ccc(Br)s2)ccc1-c1cnco1 [Compound 5]
4. COc1cc(NCc2ccco2)ccc1-c1cnco1 [Compound 41]

1. 38.6 µg/mL
2. 36.7 µg/mL
3. 16.5 µg/mL
4. 22.8 µg/mL

// each listed compound needs a value for IC50
1. COc1ccc(-c2cnco2)cc1NCc1cccs1 [Compound 21]
2. COc1cc(/N=C/c2ccc([N+](=O)[O-])o2)ccc1-c1cnco1 [Compound 49]
3. COc1ccccc1/C=C/CNc1ccc(-c2cnco2)c(OC)c1 [Compound 63]
4. COc1ccc(-c2cnco2)cc1NCc1ccc(C)s1 [Compound 22]
5. COc1cc(NCc2cc3ccccc3s2)ccc1-c1cnco1 [Compound 10]
6. COc1cc(NCc2cncs2)ccc1-c1cnco1 [Compound 55]

1: 122 µg/mL; 2: 4.84 µg/mL; 3: 14.1 µg/mL; 4: 26.2 µg/mL; 5: 26.8 µg/mL; 6: 31.9 µg/mL

// returns reported IC50 for input COc1cc(NCc2ccc(-c3ccccc3)s2)ccc1-c1cnco1 [Compound 6]
16.9 µg/mL
